# Tested on: Rattus norvegicus
# EXPERIMENTAL_PROTOCOL: Evaluation of antiulcer activity (% decrease in total number of lesions in cold-restraint, stressed rats) at peroral dose 10 mg/kg.
# Assay type: functional
# CONDITION: route oral
Listed compounds paired with reported Decrease
Number in %, nothing else.

Some solved entries appear below for comparison.
> print(dat)
                   compound  units  reported
1   Oc1ncc(Oc2ccccc2)c(O)n1      %        22
2  CSc1ccc(Oc2cnc(O)nc2)cc1      %         0
3     Cc1cccc(Oc2cncnc2O)c1      %         0

Q: I'd like to know its Decrease. The compound in question is C[S+]([O-])c1ccc(Oc2cnc(O)nc2)cc1 (centres undefined)
A: 50

Q: Entry under review: Oc1ncc(Oc2ccc(F)cc2)cn1 . Reported Decrease?
A: 0

Q: Please report the recorded Decrease for Cc1cc(Oc2cnc(O)nc2)ccc1Cl .
A: 0

Q: GET /values?readout=Decrease&item= Oc1ncc(Oc2cccc(C(F)(F)F)c2)cn1
A: 39

Q: Give its Decrease value. Item: Cc1ccc(Oc2cnc(O)nc2)cc1C
A: 54

Q: # query: Decrease of entry COc1ccc(Oc2cncnc2O)cc1
A: 0

Q: GET /values?readout=Decrease&item= COc1ccc(Oc2cnc(O)nc2)cc1
A: 0

Q: For COc1cccc(Oc2cncnc2O)c1 , what is its reported Decrease?
A: 0

----------
Measured Decrease of individual entries
# Test system: Rattus norvegicus
# EXPERIMENTAL_PROTOCOL: Evaluation of antiulcer activity( percent decrease in total number of lesions in cold-restraint, stressed rats) at intraperitoneal dose at 100 mg/kg; Inactive
# Type: functional
Numeric answer only, unit % assumed.

Reference set (8 entries):
> print(dat)
                      molecule  reported
1     CCc1ccc(Oc2cnc(O)nc2)cc1        27
2    Cc1cc(Oc2cnc(O)nc2)ccc1Cl        14
3     COc1ccc(Oc2cnc(O)nc2)cc1         0
4  CC(C)c1ccc(Oc2cnc(O)nc2)cc1         9
5      Oc1ncc(Oc2ccc(F)cc2)cn1         0
6   Oc1ncc(Oc2ccc(Cl)cc2Cl)cn1        19
7         Oc1ncc(Sc2ccccc2)cn1        47
8     Oc1ncc(Oc2cccc(Cl)c2)cn1         0

Q: Endpoint output: Decrease of C[S+]([O-])c1ccc(Oc2cnc(O)nc2)cc1 (stereo unspecified) . Value?
A: 0

Q: Which value of Decrease has been reported for Oc1ncc(Oc2ccc(Br)cc2)cn1 in the records?
A: 0

Q: I am curious: what Decrease value has been reported for Cc1ccc(Oc2cnc(O)nc2)cc1 ?
A: 0

Q: Any idea what Decrease was measured for Cc1ccc(Oc2cnc(O)nc2)c(C)c1 ?
A: 0

Q: Need Decrease, item Cc1ccccc1Oc1cnc(O)nc1
A: 25

Q: GET /values?readout=Decrease&item= Cc1ccc(Oc2cnc(O)nc2)cc1C
A: 53

Q: Param item = Oc1ncc(Oc2ccc(Cl)cc2)cn1 ; retrieve measured Decrease.
A: 0

Q: State the recorded Decrease for this entry: CSc1ccc(Oc2cnc(O)nc2)cc1
A: 0

----------
# Test system: Rattus norvegicus
# EXPERIMENTAL_PROTOCOL: Evaluation of antiulcer activity (% decrease in total number of lesions in cold-restraint, stressed rats) at peroral dose 10 mg/kg.
# Assay type: functional
# CONDITION: route oral
Each item that follows carries a reported Decrease.
Lab note: write values as number then unit, every time.

A selection of reference data follows.
> print(dat)
           structure.string   measure  reported
1  COc1cccc(Oc2cnc(O)nc2)c1  Decrease       55%
2  Cc1ccc(Oc2cnc(O)nc2O)cc1  Decrease        0%
3     Cc1ccccc1Oc1cnc(O)nc1  Decrease        0%

Q: Field: Decrease (Rattus norvegicus). Entry: Oc1ncc(Oc2cccc(Cl)c2)cn1
A: 22%

Q: // map Oc1ncc(Oc2ccc(Cl)cc2Cl)cn1 to recorded Decrease (system: Rattus norvegicus)
A: 22%

Q: Missing value: Decrease, Rattus norvegicus, entry Cc1ccc(Sc2cnc(O)nc2)cc1 . Fill in?
A: 18%

Q: Given the entry Oc1ncncc1Oc1ccc(F)cc1 , what Decrease was observed with Rattus norvegicus?
A: 28%

Q: Missing value: Decrease, Rattus norvegicus, entry Cc1ccc(Oc2cncnc2O)cc1 . Fill in?
A: 27%

Q: API: value(readout= Decrease, system= Rattus norvegicus, query= CCc1cccc(Oc2cnc(O)nc2)c1 )
A: 28%

Q: // lookup Decrease | system=Rattus norvegicus | key= Oc1ncc(Oc2ccc(Cl)cc2)cn1
A: 7%

Q: Provide value of Decrease for this record tested with Rattus norvegicus: CCc1ccc(Oc2cnc(O)nc2)cc1
A: 0%

Q: Tell me reported Decrease for Oc1ncc(Oc2ccc(Cl)cc2)c(O)n1 , tested with Rattus norvegicus.
A: 35%

Q: Value wanted: Decrease (Rattus norvegicus) of entry CC(C)c1ccc(Oc2cnc(O)nc2)cc1
A: 0%

Q: Could you share what Decrease was measured for Cc1cccc(Oc2cnc(O)nc2O)c1 , tested on Rattus norvegicus?
A: 0%

Q: Query for Rattus norvegicus: what Decrease does the record show for Oc1ncc(Sc2ccccc2)cn1 ?
A: 45%

Q: State its Decrease on Rattus norvegicus: Oc1ncncc1Oc1ccccc1
A: 0%

Q: Field: Decrease (Rattus norvegicus). Entry: Oc1ncc(Oc2ccc(Br)cc2)cn1
A: 0%

Q: What is its Decrease for Rattus norvegicus? Entry: Cc1cc(C)cc(Oc2cnc(O)nc2)c1
A: 50%
